system: CCRF-CEM; assay: In vitro cytotoxicity against human CCRF-CEM T-lymphoblastic leukemia cells was determined; type: functional, cell-based; conditions: ccrf-cem
measurementType: IC50 (µM)
One number for each entry, in µM.

Give me IC50 for each of these compounds, listed below.
1. Nc1ccn([C@H]2CC[C@@H](CO)O2)c(=O)n1 (stereo in doubt; form 3) [ZALCITABINE]
2. Nc1ccn([C@H]2CC[C@@H](CO)O2)c(=O)n1 (stereo in doubt; form 1) [ZALCITABINE]
3. Nc1nc(=O)n([C@@H]2CC[C@H](CO)O2)cc1F (stereo in doubt; form 2)
4. Nc1nc(=O)n([C@@H]2CC[C@H](CO)O2)cc1F (stereo in doubt; form 1)

Solution:
[70, 28, 67, 2]
